# measured on: Pim-1 (Homo sapiens (Human))
# Sequence (P11309 whole entry): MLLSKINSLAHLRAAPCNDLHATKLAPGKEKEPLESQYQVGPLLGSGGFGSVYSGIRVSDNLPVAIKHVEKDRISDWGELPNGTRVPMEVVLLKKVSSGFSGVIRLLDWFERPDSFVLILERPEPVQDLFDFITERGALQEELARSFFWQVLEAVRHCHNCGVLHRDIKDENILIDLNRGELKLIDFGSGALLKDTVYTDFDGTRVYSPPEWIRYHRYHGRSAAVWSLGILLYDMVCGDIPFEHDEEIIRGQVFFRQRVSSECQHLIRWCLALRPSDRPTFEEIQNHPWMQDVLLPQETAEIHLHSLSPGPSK

| compound | IC50 |
| --- | --- |
| CCOC1CN(c2cnc3c(C(=O)Nc4cnccc4[C@@H]4C[C@H](C)C[C@H](N)C4)ccc(F)c3c2)C1 [Example 122] | ≤ 10 nM |
| C[C@@H]1C[C@H](N)C[C@H](c2ccncc2NC(=O)c2ccc(F)c3cc(NCCF)cnc23)C1 [Example 26] | ≤ 10 nM |
| C[C@@H]1C[C@H](N)C[C@H](c2ccncc2NC(=O)c2ccc(F)c3cc(N4CCC[C@H](C)C4)cnc23)C1 [Example 113] | ≤ 10 nM |
| C[C@@H]1C[C@H](N)C[C@H](c2ccncc2NC(=O)c2ccc(F)c3cc(N(C)c4ccccc4F)cnc23)C1 [Example 97] | ≤ 10 nM |

----------
Recorded IC50 values (Pim-2 (Homo sapiens (Human))) are given below.

| compound | IC50 |
| --- | --- |
| C[C@@H]1C[C@H](N)C[C@H](c2ccncc2NC(=O)c2ccc(F)c3cc(N4CC5CC(C4)O5)cnc23)C1 | ≤ 100 nM |
| C[C@@H]1C[C@H](N)C[C@H](c2ccncc2NC(=O)c2cccc3cc(N4CCC[C@@H]4C)cnc23)C1 | ≤ 100 nM |
| C[C@@H]1C[C@H](N)C[C@H](c2ccncc2NC(=O)c2ccc(F)c3cc(N4CC5CCC4C5)cnc23)C1 (stereo partly shown) | ≤ 100 nM |
| C[C@@H]1C[C@H](N)C[C@H](c2ccncc2NC(=O)c2ccc(F)c3cc(N4CCC[C@H]4C)cnc23)C1 | ≤ 100 nM |
| CCCN(C)c1cnc2c(C(=O)Nc3cnccc3[C@@H]3C[C@H](C)C[C@H](N)C3)ccc(F)c2c1 | ≤ 100 nM |
| C[C@@H]1C[C@H](N)C[C@H](c2ccncc2NC(=O)c2ccc(F)c3cc(N4CCCS4(=O)=O)cnc23)C1 | 100 to 1000 nM |
| C[C@@H]1C[C@H](N)C[C@H](c2ccncc2NC(=O)c2ccc(F)c3cc(N4CCN(C(=O)N(C)C)CC4)cnc23)C1 | 100 to 1000 nM |

----------
Reported pIC50 values, Pim-3 (Homo sapiens (Human)).
pIC50: −log10 of the molar value.

| smiles string | pIC50 |
| --- | --- |
| COCCN1CCN(c2cnc3c(C(=O)Nc4cnccc4[C@@H]4C[C@H](C)C[C@H](N)C4)ccc(F)c3c2)CC1=O | ≥ 8.00 |
| C[C@@H]1C[C@H](N)C[C@H](c2ccncc2NC(=O)c2ccc(F)c3cc(N4CCC(C#N)CC4)cnc23)C1 | 7.30 to 8.00 |
| CO[C@@H]1CCN(c2cnc3c(C(=O)Nc4cnccc4[C@@H]4C[C@H](C)C[C@H](N)C4)ccc(F)c3c2)C1 | ≥ 8.00 |
| Cc1n[nH]cc1-c1cnc2c(C(=O)Nc3cnccc3[C@@H]3C[C@H](C)C[C@H](N)C3)ccc(F)c2c1 | ≥ 8.00 |
| C[C@@H]1C[C@H](N)C[C@H](c2ccncc2NC(=O)c2ccc(F)c3cc(N4CCCN(C)C(=O)C4)cnc23)C1 | ≥ 8.00 |
| C[C@@H]1C[C@H](N)C[C@H](c2ccncc2NC(=O)c2ccc(F)c3cc(-c4cnn(C)c4)cnc23)C1 | ≥ 8.00 |
| C[C@@H]1C[C@H](N)C[C@H](c2ccncc2NC(=O)c2ccc(F)c3cc(-c4ccc(C(F)(F)F)nc4)cnc23)C1 | 7.30 to 8.00 |
